Biological target: PI3K-γ (Homo sapiens, UniProt P48736)
Sequence (P48736 whole entry, species assumed): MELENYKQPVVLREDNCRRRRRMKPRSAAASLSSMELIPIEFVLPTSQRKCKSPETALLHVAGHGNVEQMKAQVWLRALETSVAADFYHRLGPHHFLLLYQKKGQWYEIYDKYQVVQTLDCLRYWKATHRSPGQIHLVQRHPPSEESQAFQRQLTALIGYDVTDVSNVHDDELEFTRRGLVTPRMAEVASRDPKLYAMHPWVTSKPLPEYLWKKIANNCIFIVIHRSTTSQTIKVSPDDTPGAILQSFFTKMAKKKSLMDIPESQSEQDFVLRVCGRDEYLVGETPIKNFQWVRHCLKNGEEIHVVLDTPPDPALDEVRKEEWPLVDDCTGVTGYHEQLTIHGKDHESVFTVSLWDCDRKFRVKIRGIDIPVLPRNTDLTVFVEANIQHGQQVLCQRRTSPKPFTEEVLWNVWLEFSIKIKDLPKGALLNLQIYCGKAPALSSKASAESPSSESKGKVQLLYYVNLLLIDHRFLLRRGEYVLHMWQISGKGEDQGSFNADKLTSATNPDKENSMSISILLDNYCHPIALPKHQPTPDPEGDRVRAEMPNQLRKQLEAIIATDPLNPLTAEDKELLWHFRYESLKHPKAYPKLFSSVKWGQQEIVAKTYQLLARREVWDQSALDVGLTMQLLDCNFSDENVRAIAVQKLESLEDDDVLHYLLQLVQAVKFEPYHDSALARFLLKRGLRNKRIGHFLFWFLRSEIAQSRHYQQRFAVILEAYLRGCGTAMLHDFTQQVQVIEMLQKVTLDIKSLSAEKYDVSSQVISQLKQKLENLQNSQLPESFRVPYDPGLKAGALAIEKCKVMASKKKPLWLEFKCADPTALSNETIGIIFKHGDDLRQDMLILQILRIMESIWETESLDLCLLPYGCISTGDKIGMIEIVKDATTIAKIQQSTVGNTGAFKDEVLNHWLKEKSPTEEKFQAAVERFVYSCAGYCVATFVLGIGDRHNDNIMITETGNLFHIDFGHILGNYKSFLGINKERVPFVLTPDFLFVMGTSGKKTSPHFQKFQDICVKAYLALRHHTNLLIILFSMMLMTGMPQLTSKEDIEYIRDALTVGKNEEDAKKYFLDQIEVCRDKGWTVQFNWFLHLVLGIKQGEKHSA
Assay: PI3K-gamma fluorescence polarization assay
Conditions: read-out: IC50 PI3Kγ; listed as 354
reported-metric: IC50 (µM)

CNC(=O)Nc1ccc(-c2nc(Nc3ccc(N4CCNCC4)cc3)nc(N3CC4CCC(C3)O4)n2)cc1 : 6.22

* * *

Biological target: PI3K-α (Homo sapiens)
Sequence (P42336 whole entry, species assumed): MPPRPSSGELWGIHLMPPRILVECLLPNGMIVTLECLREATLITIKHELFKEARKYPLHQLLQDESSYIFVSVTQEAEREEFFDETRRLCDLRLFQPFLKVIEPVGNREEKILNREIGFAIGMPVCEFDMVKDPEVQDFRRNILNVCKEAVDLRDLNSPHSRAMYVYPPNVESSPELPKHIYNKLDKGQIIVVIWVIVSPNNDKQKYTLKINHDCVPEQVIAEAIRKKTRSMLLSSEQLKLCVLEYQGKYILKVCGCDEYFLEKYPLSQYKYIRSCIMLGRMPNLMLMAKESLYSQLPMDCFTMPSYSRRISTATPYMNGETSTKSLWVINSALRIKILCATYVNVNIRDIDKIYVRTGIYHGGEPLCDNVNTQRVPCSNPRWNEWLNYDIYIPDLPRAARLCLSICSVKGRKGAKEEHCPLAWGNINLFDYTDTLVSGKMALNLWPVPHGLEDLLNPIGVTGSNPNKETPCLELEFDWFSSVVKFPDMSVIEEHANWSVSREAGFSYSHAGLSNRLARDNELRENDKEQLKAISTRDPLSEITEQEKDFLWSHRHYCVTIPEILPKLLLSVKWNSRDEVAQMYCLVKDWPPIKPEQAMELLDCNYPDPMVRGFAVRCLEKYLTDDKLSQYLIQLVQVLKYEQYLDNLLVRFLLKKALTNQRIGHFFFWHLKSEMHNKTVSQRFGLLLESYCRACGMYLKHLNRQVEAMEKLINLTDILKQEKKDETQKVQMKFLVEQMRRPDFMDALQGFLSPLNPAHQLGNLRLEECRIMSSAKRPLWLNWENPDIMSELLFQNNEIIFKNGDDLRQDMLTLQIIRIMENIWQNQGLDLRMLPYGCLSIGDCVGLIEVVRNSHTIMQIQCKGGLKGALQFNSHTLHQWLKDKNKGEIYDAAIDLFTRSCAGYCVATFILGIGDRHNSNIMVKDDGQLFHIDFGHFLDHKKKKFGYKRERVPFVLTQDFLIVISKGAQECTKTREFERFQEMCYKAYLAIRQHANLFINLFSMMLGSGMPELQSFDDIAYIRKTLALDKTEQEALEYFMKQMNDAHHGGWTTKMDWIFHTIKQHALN
Sequence (P27986 whole entry partner, species assumed): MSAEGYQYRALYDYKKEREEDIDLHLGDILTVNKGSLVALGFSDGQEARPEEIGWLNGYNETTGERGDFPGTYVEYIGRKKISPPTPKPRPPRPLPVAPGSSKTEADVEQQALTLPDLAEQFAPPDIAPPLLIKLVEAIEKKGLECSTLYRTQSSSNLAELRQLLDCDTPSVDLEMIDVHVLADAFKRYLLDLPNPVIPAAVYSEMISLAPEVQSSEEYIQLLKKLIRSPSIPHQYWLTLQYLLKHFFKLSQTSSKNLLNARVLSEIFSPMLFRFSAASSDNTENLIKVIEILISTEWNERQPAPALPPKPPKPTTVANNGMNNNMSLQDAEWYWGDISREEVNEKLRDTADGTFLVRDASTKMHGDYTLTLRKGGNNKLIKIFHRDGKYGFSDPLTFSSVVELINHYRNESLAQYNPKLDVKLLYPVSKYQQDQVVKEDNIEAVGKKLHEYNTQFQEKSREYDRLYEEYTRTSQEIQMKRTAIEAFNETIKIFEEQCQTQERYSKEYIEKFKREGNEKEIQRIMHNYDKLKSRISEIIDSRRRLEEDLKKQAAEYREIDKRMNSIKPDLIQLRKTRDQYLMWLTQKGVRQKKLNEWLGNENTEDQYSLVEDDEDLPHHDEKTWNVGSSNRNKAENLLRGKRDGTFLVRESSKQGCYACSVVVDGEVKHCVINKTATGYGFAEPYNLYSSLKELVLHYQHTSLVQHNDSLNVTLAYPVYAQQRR
Assay: PI3K-alpha fluorescence polarization assay
Details: read-out: IC50 PI3Kα
pIC50: −log10 of the molar value.
Measured pIC50, listed per entry for reference.
reported-metric: pIC50

CCc1nc(-c2ccc(NC(=O)Nc3ccc(C(=O)N4CCNC(C)(C)C4)cc3)cc2)nc(N2CCOCC2)n1 [Example 298] : 8.70
O=C(Nc1ccc(C(=O)NCCN2CCCCC2)cc1)Nc1ccc(-c2nc(O[C@H]3CCOC3)nc(N3CCOCC3)n2)cc1 [Example 520] : 8.85
C[C@H]1COCCN1c1nc(-c2ccc(NC(=O)Nc3ccc(C(=O)N4CCN(C)CC4)cc3)cc2)nc(N2CCOC[C@@H]2C)n1 [Example 565] : 8.39
CCN1CCN(C(=O)Nc2ccc(NC(=O)Nc3ccc(-c4nc(N5CCOCC5)nc(N5CCOCC5)n4)cc3)cc2)CC1 [Example 503] : 9.30
CN(C)c1ccc(NC(=O)Nc2ccc(-c3nc(OC4CCOCC4)nc(N4CCOCC4)n3)cc2)cc1 [Example 66] : 8.15
O=C(Nc1ccncc1)Nc1ccc(-c2nc(N3CCOCC3)nc(N3C4COCC3[C@H](O)C4)n2)cc1 (stereo partly shown) [Example 820] : 8.21
CNCCNC(=O)Nc1ccc(-c2nc(OC3CCOCC3)nc(N3CCOCC3)n2)cc1 [Example 64] : 5.84
Cc1cc(NC(=O)Nc2ccc(-c3nc(OC4CCOCC4)nc(N4CCOCC4)n3)cc2)ccn1 [Example 63] : 8.30
COc1nc(-c2ccc(NC(=O)Nc3ccc(C(=O)N(C)CCN(C)C)cc3)cc2)nc(N2CCOCC2)n1 [Example 243] : 9.00
COC(=O)c1ccc(NC(=O)Nc2ccc(-c3nc(N4CCCCC4)nc(N4CCOCC4)n3)cc2)cc1 [Example 591] : 6.60
COc1nc(-c2ccc(NC(=O)Nc3ccc(C(=O)N4CCNC(C)(C)C4)cc3)cc2)nc(N2CCOCC2)n1 [Example 247] : 8.70
O=C(Nc1ccncc1)Nc1ccc(-c2nc(N3CCOCC3)nc(N3C4COCC3[C@@H](O)C4)n2)cc1 (stereo partly shown) [Example 818] : 7.42
CN(C)CCNC(=O)c1ccc(NC(=O)Nc2ccc(-c3nc(N4CCCOCC4)nc(N4CCOCC4)n3)cc2)cc1 [Example 572] : 9.05
CC(C)N1CCN(c2ccc(NC(=O)Nc3ccc(-c4nc(N5CCOC[C@H]5C)nc(N5CCOC[C@H]5C)n4)cc3)cc2)CC1 [Example 448] : 6.28
O=C(Nc1ccc(-c2nc(N3CCOCC3)nc(N3CC4CCC(C3)O4)n2)cc1)Nc1cccnc1 [Example 47] : 7.89
CN1CCN(C(=O)c2ccc(NC(=O)Nc3ccc(-c4nc(N5CCOCC5)nc(N5CC6CCC5CO6)n4)cc3)cc2)CC1 (stereo not shown) [Example 813] : 8.51
C[C@H]1COCCN1c1nc(-c2ccc(NC(=O)Nc3ccc(C(=O)NCCN(C)C)cc3)cc2)nc(N2CCOC[C@@H]2C)n1 [Example 546] : 8.46
C[C@H]1COCCN1c1nc(-c2ccc(NC(=O)Nc3ccc(C(=O)N4CCN(C)CC4)cc3)cc2)nc(N2CCOCC2)n1 [Example 617] : 8.60
CN(C)[C@H]1CCN(C(=O)c2ccc(NC(=O)Nc3ccc(-c4nc(N5CCOCC5)nc(N5C6CCC5COC6)n4)cc3)cc2)C1 [Example 516] : 8.68
CN(C)CCN(C)C(=O)c1ccc(NC(=O)Nc2ccc(-c3nc(N4CCOCC4)nc(N4C5CCCC4COC5)n3)cc2)cc1 [Example 795] : 8.57
NC(=O)c1ccc(NC(=O)Nc2ccc(-c3nc(N4CCOCC4)nc(N4C5CCC4COC5)n3)cc2)cc1 [Example 35] : 8.22
Cc1nc(-c2ccc(NC(=O)Nc3ccncc3)cc2)nc(N2CCOCC2)n1 [Example 161] : 7.41
CN1CCN(CCNC(=O)c2ccc(NC(=O)Nc3ccc(-c4nc(N5CCOCC5)nc(N5C6CCC5COC6)n4)cc3)cc2)CC1 [Example 753] : 8.70
O=C(Nc1ccncc1)Nc1ccc(-c2nc(N3CCOCC3)nc(N3CCN(C45CC6CC(CC(C6)C4)C5)CC3)n2)cc1 [Example 640] : 6.46
COC(=O)c1ccc(NC(=O)Nc2ccc(-c3nc(N4CCOC[C@@H]4C)nc(N4CCOC[C@@H]4C)n3)cc2)cc1 [Example 540] : 7.27
COCCNC(=O)c1ccc(NC(=O)Nc2ccc(-c3nc(N4CCOC[C@@H]4C)nc(N4CCOC[C@@H]4C)n3)cc2)cc1 [Example 639] : 7.84
CC(C)N1CCCN(c2nc(-c3ccc(NC(=O)Nc4ccc(C(=O)N5CCN(C)CC5)cc4)cc3)nc(N3CCOCC3)n2)CC1 [Example 657] : 7.94
CCCCc1nc(-c2ccc(NC(=O)Nc3ccncc3)cc2)nc(N2CCOCC2)n1 [Example 186] : 7.55

The measurements presented in this section are drawn from patent US20090304692A1.
